Data origin, for the record: patent US20100291106A1

Target: T1, human complement C3b protein (human, UniProt P01024 23-667; P01024 749-1663)
T1 construct: Purified plasma C3b (Complement Technology, Quidel); Depending on the assay it was captured by an anti-C3d antibody, coated, biotinylated or coupled to beads; also called human C3b; huC3b
T1 sequence (P01024 23-667 P314L, chain 1 of 2): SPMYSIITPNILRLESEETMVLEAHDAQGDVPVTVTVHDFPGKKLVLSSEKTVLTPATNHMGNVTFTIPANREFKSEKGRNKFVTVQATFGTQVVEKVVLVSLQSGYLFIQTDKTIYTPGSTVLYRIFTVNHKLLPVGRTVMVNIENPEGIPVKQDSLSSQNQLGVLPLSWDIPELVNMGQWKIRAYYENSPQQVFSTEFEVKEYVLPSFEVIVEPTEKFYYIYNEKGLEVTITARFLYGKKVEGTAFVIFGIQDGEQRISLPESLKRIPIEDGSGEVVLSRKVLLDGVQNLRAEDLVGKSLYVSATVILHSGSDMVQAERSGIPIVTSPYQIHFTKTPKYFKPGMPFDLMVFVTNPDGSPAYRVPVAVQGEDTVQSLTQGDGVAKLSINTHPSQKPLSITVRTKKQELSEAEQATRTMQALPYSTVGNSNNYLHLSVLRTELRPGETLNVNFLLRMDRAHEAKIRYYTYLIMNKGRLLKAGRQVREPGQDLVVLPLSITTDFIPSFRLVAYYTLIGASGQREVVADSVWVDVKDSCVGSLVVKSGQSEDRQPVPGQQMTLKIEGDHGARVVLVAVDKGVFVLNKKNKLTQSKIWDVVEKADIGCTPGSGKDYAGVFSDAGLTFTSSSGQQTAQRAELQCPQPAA
T1 sequence (P01024 749-1663, chain 2 of 2): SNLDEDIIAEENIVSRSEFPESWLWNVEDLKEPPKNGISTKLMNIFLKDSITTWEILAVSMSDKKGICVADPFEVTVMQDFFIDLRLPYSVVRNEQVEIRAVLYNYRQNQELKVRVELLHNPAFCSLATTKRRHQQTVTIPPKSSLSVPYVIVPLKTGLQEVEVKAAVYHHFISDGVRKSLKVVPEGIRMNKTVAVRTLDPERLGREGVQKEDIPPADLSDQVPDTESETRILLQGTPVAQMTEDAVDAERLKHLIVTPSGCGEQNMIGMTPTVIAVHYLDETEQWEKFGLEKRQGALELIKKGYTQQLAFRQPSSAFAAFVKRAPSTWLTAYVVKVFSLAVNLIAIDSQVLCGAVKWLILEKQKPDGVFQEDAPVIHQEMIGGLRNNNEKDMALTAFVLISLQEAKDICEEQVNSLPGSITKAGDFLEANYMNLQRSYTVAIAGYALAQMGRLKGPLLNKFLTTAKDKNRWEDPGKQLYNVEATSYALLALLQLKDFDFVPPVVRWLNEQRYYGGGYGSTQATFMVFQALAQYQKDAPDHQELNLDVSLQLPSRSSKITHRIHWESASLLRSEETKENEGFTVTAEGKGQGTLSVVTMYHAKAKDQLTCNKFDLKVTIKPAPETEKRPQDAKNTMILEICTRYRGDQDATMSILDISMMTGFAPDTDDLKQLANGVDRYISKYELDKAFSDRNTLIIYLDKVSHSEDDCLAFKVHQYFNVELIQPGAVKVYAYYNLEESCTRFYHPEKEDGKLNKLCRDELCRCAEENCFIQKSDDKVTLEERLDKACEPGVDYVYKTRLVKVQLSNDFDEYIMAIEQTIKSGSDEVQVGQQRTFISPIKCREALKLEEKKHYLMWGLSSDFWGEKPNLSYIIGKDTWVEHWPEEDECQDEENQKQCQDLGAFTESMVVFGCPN
Assay: AlphaScreen bead proximity, C3b-Acceptor beads pre-incubated with antibody, then biotinylated fB(D24G/N260D) and SA-Donor beads; blocked ligand: fB [A]
Measure Name: IC50 (read off the curve)

- Binder: "MOR09612 IgG (antibody, V domains shown, Germlined human IgG1 with leucines 234 and 235 changed to alanines, kappa; also called antibody 9612) VH: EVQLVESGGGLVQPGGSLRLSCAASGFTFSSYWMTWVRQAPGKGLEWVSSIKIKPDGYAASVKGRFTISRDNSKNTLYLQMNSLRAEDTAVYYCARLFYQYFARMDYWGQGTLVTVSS VL: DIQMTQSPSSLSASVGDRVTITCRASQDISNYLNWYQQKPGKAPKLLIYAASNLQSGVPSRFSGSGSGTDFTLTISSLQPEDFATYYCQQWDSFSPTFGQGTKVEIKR"
  IC50 (read off the curve): "~50 pM"
- Binder: "MOR09611 IgG (antibody, V domains shown, Germlined human IgG1 with leucines 234 and 235 changed to alanines, kappa; also called antibody 9611) VH: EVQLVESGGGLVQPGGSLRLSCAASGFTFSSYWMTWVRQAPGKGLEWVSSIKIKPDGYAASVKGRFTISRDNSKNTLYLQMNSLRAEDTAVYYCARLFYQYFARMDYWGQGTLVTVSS VL: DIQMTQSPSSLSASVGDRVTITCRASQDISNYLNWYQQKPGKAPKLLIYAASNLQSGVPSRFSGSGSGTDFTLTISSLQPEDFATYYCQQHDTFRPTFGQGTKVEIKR"
  IC50 (read off the curve): "~50 pM"

Entry MOR09556 IgG (antibody, V domains shown, Germlined human IgG1 with leucines 234 and 235 changed to alanines, kappa; also called antibody 9556) VH: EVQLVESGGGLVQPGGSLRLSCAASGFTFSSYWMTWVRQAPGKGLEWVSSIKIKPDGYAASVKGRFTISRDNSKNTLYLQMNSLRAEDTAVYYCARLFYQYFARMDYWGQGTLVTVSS VL: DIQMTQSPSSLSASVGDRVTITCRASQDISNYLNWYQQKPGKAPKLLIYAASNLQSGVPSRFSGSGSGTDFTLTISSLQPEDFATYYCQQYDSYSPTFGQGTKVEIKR ; IC50 (read off the curve) = ~50 pM
